Test: Cytotoxicity in HepG2.117 cells, ATPlite Luminescence Assay
Type: cell-based, human
Details: human, incubated for 3 days, mean value, read-out: TOX-HepG2.117 CC50 (μM, mean value)
Could you please report measured CC50 at 3 days for the items listed next?

// for each compound below, give its CC50 at 3 days
1. Cc1nnc(C(C)N2CCn3nc4c(c3C2=O)CN(C(=O)c2ccc(Cl)c(Cl)c2)[C@H](C)C4)o1 (stereo partly drawn) [Example C224]
2. C[C@@H]1Cc2nn3c(c2CN1C(=O)c1ccc(Cl)c(Cl)c1)C(=O)N(Cc1nc(Cl)ccc1F)CC3 [Example C199]

["> 50 µM", "> 50 µM"]

Can you share its CC50 at 3 days? I mean this compound: C[C@@H]1Cc2nn3c(c2CN1C(=O)c1ccc(Cl)c(Cl)c1)C(=O)N(Cc1ncnn1C)CC3 [Example C144]
> 50 µM

* * *

Test: Cytotoxicity in HepG2.117 cells, ATPlite Luminescence Assay
Format: cell-based, human
Conditions: human, incubated for 3 days, mean value, read-out: TOX-HepG2.117 CC50 (μM, mean value)
Observed Property: CC50 at 3 days

• Cc1cnc(CN2CCn3nc4c(c3C2=O)CN(C(=O)c2ccc(Cl)c(Cl)c2)[C@H](C)C4)o1 [Example C138] = > 50 µM
• CC(C)n1ccc(CN2CCn3nc4c(c3C2=O)CN(C(=O)c2ccc(Cl)c(Cl)c2)[C@H](C)C4)n1 [Example C137] = > 50 µM
• COc1ccc(CN2CCn3nc4c(c3C2=O)CN(C(=O)c2ccc(C(F)F)c(C#N)c2)CC4)cc1 [Example C70] = > 50 µM
• C[C@@H]1Cc2nn3c(c2CN1C(=O)c1ccc(Cl)c(Cl)c1)C(=O)N(Cc1ccc(C#N)cc1OC(F)F)CC3 [Example C203] = > 50 µM
• C[C@@H]1Cc2nn3c(c2CN1C(=O)c1ccc(Cl)c(Cl)c1)C(=O)NCCC3 [Compound 38] = > 50 µM

// for each compound below, give its CC50 at 3 days
1. Cc1cc(F)ccc1CN1CCn2nc3c(c2C1=O)CN(C(=O)c1ccc(Cl)c(Cl)c1)[C@H](C)C3 [Example C154]
2. C[C@@H]1Cc2nn3c(c2CN1C(=O)c1ccc(Cl)c(Cl)c1)C(=O)N(Cc1cccc(OC(F)F)c1)CC3 [Example C66]
3. O=C(c1ccc(Cl)c(Cl)c1)N1CCc2nn3c(c2C1)C(=O)N(Cc1nccs1)CC3 [Compound 7]
4. CC(c1ccccc1C#N)N1CCn2nc3c(c2C1=O)CN(C(=O)c1ccc(Cl)c(Cl)c1)[C@H](C)C3 (stereo partly drawn) [Example C129]

1: 9.53 µM; 2: 9.18 µM; 3: > 50 µM; 4: > 50 µM

// for each compound below, give its CC50 at 3 days
1. Cc1nnc(CN2CCn3nc4c(c3C2=O)CN(C(=O)c2ccc(Cl)c(Cl)c2)[C@H](C)C4)n1C [Example C136]
2. CC(c1cnccn1)N1CCn2nc3c(c2C1=O)CN(C(=O)c1ccc(Cl)c(Cl)c1)[C@H](C)C3 (stereo partly drawn) [Example C246]
3. C[C@@H]1Cc2nn3c(c2CN1C(=O)c1ccc(Cl)c(Cl)c1)C(=O)N([C@@H](C)c1ccccc1C(F)(F)F)CC3 (relative stereo) [C123*R]

> 50 µM
> 50 µM
20 µM
